Values were extracted from patent US20250320213A1.

molecular target: STAT6 (Homo sapiens); construct: stably transfected HaCaT keratinocyte cell line, which expresses NanoLuc luciferase reporter gene under the transcriptional control of the STAT6 responsive promoter; endogenous in cells; host or cells: HaCaT keratinocyte reporter cell line (stably transfected with a NanoLuc reporter); assay: STAT6 Reporter Luciferase Assay (IL-13 stimulated HaCaT keratinocyte NanoLuc reporter cells); type: cell-based; conditions: STAT6 NanoLuc luciferase reporter, IL-13 stimulated HaCaT keratinocyte cells; read-out: Reporter EC50
Sequence (P42226 whole entry): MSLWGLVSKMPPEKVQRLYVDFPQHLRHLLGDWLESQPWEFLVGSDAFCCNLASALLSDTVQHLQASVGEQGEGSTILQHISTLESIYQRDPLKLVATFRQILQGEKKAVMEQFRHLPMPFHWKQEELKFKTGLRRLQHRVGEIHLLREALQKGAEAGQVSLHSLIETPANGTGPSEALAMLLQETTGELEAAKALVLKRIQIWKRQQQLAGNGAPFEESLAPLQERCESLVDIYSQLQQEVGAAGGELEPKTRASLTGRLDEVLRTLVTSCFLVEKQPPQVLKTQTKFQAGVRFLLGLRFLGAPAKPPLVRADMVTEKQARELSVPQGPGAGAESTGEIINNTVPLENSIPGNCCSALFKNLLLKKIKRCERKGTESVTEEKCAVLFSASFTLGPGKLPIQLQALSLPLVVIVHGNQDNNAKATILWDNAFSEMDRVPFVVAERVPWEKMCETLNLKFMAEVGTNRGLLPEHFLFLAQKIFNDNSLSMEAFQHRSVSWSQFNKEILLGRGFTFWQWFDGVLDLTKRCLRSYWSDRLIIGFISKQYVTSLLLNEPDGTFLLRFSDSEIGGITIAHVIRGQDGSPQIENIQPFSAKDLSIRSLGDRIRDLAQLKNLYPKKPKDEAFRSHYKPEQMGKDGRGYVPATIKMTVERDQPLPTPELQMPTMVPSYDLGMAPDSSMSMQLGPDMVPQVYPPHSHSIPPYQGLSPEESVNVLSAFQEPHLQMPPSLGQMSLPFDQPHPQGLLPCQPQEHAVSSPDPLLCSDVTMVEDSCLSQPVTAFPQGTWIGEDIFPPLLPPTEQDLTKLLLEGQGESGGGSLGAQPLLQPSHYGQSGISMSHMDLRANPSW
Quantity: EC50

Worked examples follow.
[[record]]
compound = "COC1(C)CN(C(=O)Nc2ccc(CNC(=O)c3nn(C(C)C)c4c3CN(c3ccc(C(=O)N(C)C)cn3)CC4)cc2)C1"
recorded_measurement = "14 nM"

[[record]]
compound = "CC(C)n1nc(C(=O)NCc2ccc(-c3cccc(=O)[nH]3)cc2)c2c1CCN(c1ccc(C(=O)N(C)C)cn1)C2"
recorded_measurement = "503 nM"

[[record]]
compound = "CCC(C)n1nc(C(=O)NCc2ccc(NC(=O)N(C)C)cc2)c2c1CCN(c1ccc(C(=O)N(C)C)cn1)C2 (racemic)"
recorded_measurement = "6 nM"


### Prompt Respond only with EC50 recorded for `CC(C)n1nc(C(=O)NCc2ccc(NC(=O)N(C)C)cc2)c2c1CCN(c1ccc(N3C[C@H](C)CC3=O)cn1)C2`
### Response 64 nM
